System: pigweed
testDetails: Test B pre-/postemergence herbicide test
Format: in vivo, Amaranthus retroflexus
statedConditions: 125 g ai/ha; visual rating, scale 0 (no effect) to 100 (complete control); postemergence
Each entry below carries its recorded Pigweed plant response rating.
Reply: number alone, nothing else.

CCNC(=O)c1cccc(NC(=O)c2cc(C(C)(C)C)n[nH]2)c1 | 0
C#CCNC(=O)c1cccc(NC(=O)c2cc(C(C)(C)C)nn2C)n1 | 10
CCNC(=O)c1cccc(NC(=O)c2nn(C(C)(C)CC)nc2CC)c1 | 70
COC(=O)c1cccc(NC(=O)c2cc(C(C)(C)C)nn2C)n1 | 0

Would you kindly look at the next entry?
// sample CCN1N=C(C(C)(C)C)CC1C(=O)Nc1cc(C(=O)N2CCCCC2)ccc1F (racemic) , its Pigweed plant response rating was 10
